- condition_context: 298.15 K, Drop volume
Threshold check on surface tension liquid-gas: strictly below 20 mN/m is rule met; on or above 20 mN/m is rule not met.

Does CCC(C)O (stereo unspecified) have surface tension liquid-gas strictly under 20 mN/m?
rule not met

Hello, I'm reviewing records and need to know if surface tension liquid-gas of "CC(C)CO" is below 20 mN/m. Could you check?
rule not met

Criterion: surface tension liquid-gas strictly below 20 mN/m. Is it met by "CCCCCC" ?
rule met

Please let me know if "CCCCCl" shows surface tension liquid-gas below 20 mN/m.
rule not met

Given the entry "CCCCO" , would its reported surface tension liquid-gas be below 20 mN/m?
rule not met

---

- condition_context: 298.15 K; 101.33 kPa; Liquid
measured_property: mass density (kg/m3)
Return type: number; implicit unit kg/m3.

// query mass density value for entry CC(C)CO [2-methyl-1-propanol]
797.77

mass density lookup needed for CCCCCC [hexane] , thanks.
655.07

// returns reported mass density for input CCC(C)O (stereo unspecified) [butan-2-ol]
802.44

Could you share which mass density value was measured for CC(C)(C)O [2-methylpropan-2-ol] ?
780.78

What does the record list as mass density for CCCCO [butan-1-ol] ?
805.8

Fill in: mass density of CCCCCl [1-chlorobutane] is ___
880.69
